Details: fish
Lab note: class by log10 biotransformation half-life (days), see bucket 1 (below 0.1), bucket 2 (0.1 to below 1), bucket 3 (1 or more)

{"structure_string": "Clc1cc2c(oc3c(Cl)c(Cl)ccc32)c(Cl)c1Cl", "answer_label": "bucket 2"}
{"structure_string": "Clc1ccc(-c2cccc(Cl)c2Cl)cc1", "answer_label": "bucket 3"}
{"structure_string": "ClCC(Cl)(Cl)CCl", "answer_label": "bucket 1"}
{"structure_string": "CCCCCCCCCCCCC", "answer_label": "bucket 3"}
{"structure_string": "Clc1ccc(Cl)c(-c2c(Cl)cc(Cl)c(Cl)c2Cl)c1", "answer_label": "bucket 3"}
{"structure_string": "c1ccc2scnc2c1", "answer_label": "bucket 1"}
{"structure_string": "COc1c(O)cc(Cl)c(Cl)c1Cl", "answer_label": "bucket 2"}
{"structure_string": "C=CCCCCCCC", "answer_label": "bucket 2"}
{"structure_string": "CCCCCCCCC1CCCCC1", "answer_label": "bucket 3"}

###

Group membership follows log10 vapour pressure (mmHg) per the scheme low-valued = under -3, mid-valued = from -3 up to 0.1, high-valued = 0.1 and over

{"compound": "CC1(C)CC(N)CC(C)(CN)C1 (stereo not given)", "answer_label": "mid-valued"}
{"compound": "C=CCCC", "answer_label": "high-valued"}
{"compound": "O=CNC(N1CCN(C(NC=O)C(Cl)(Cl)Cl)CC1)C(Cl)(Cl)Cl (stereo not given)", "answer_label": "low-valued"}
{"compound": "Cc1cccc(C)c1", "answer_label": "high-valued"}
{"compound": "CCCc1ccccc1C", "answer_label": "mid-valued"}
{"compound": "CCCCCI", "answer_label": "high-valued"}
{"compound": "CBr", "answer_label": "high-valued"}
{"compound": "CC(C)C(=O)C(C)C", "answer_label": "high-valued"}
{"compound": "CC(C)CCOC=O", "answer_label": "high-valued"}
{"compound": "Clc1ccc(Cl)c(Oc2ccccc2)c1Cl", "answer_label": "low-valued"}
{"compound": "C/C=C/C=O", "answer_label": "high-valued"}
{"compound": "OCCCc1ccccc1", "answer_label": "mid-valued"}
{"compound": "O=c1c2cc(F)ccc2nc(-n2cncn2)n1-c1ccc(Cl)cc1Cl", "answer_label": "low-valued"}
{"compound": "C=CC=CC=C", "answer_label": "high-valued"}
{"compound": "CCCCCCCCCCCCC", "answer_label": "mid-valued"}
{"compound": "CCCCCCCCCC=O", "answer_label": "mid-valued"}
{"compound": "CCCSC", "answer_label": "high-valued"}
{"compound": "CC(C)c1cccc2ccccc12", "answer_label": "mid-valued"}
{"compound": "OCCOc1ccc(N=Nc2ccccc2)cc1", "answer_label": "low-valued"}
{"compound": "CCCCCCCCCCCCCCCCCl", "answer_label": "low-valued"}
{"compound": "OCC(F)(F)C(F)(F)C(F)(F)F", "answer_label": "high-valued"}
{"compound": "CCCCCCC(=O)CCCCCC", "answer_label": "mid-valued"}
{"compound": "CCC(=O)Nc1ccc(Cl)c(Cl)c1", "answer_label": "low-valued"}
{"compound": "O=C1CC(=O)NC(=S)N1", "answer_label": "low-valued"}
{"compound": "Clc1cc2c(c(Cl)c1Cl)Oc1c(cc(Cl)c(Cl)c1Cl)O2", "answer_label": "low-valued"}
{"compound": "CCCCCCCCCCCCCCCCO", "answer_label": "low-valued"}
{"compound": "O=C(O)COc1ccc(Cl)cc1CO", "answer_label": "low-valued"}
{"compound": "Cc1cccc(N)c1N", "answer_label": "low-valued"}
{"compound": "CCc1cccc(CC)c1N", "answer_label": "mid-valued"}
{"compound": "CCC(=O)OC(C)C", "answer_label": "high-valued"}
{"compound": "CNC(=O)ON=C(C)SC", "answer_label": "low-valued"}
{"compound": "CC(C)c1ccc(NC(=O)N(C)C)cc1", "answer_label": "low-valued"}
{"compound": "Cc1ccc2cc(C)ccc2c1", "answer_label": "mid-valued"}
{"compound": "CCCCC(=O)CCCC", "answer_label": "mid-valued"}
{"compound": "CCCCCCI", "answer_label": "high-valued"}
{"compound": "COCOC", "answer_label": "high-valued"}
{"compound": "CNC.O=C(O)COc1ccc(Cl)cc1Cl", "answer_label": "low-valued"}
{"compound": "CC(C)C=CC(C)C", "answer_label": "high-valued"}
{"compound": "O=C(O)CCC(=O)O", "answer_label": "low-valued"}
{"compound": "C=Cc1ccc(C)nc1", "answer_label": "mid-valued"}
{"compound": "CCCCCCCCCC(=O)OC", "answer_label": "mid-valued"}
{"compound": "C=C(C)C1CC=C(C)CC1 (stereo not given)", "answer_label": "high-valued"}
{"compound": "CCc1cccc(C)c1N(COC(C)C)C(=O)CCl", "answer_label": "low-valued"}
{"compound": "Cn1c(=O)on(-c2ccc(Cl)c(Cl)c2)c1=O", "answer_label": "low-valued"}
{"compound": "OCC1CCC(CO)CC1 (stereo not given)", "answer_label": "low-valued"}
{"compound": "CCCCC(C)=O", "answer_label": "high-valued"}
{"compound": "CCCCCCCCSCCO", "answer_label": "low-valued"}
{"compound": "C=CCCC(C)=O", "answer_label": "high-valued"}
{"compound": "CC(=O)c1cccc2ccccc12", "answer_label": "low-valued"}
{"compound": "Brc1ccc(Br)cc1", "answer_label": "mid-valued"}
{"compound": "Clc1cc(Cl)c(Cl)c(Cl)c1", "answer_label": "mid-valued"}
{"compound": "Clc1cc2c(Cl)cc(Cl)c(Cl)c2c(Cl)c1Cl", "answer_label": "low-valued"}
{"compound": "CC", "answer_label": "high-valued"}
{"compound": "CCOC=O", "answer_label": "high-valued"}
{"compound": "Cc1cc(N)ccc1N=Nc1ccc([N+](=O)[O-])cc1", "answer_label": "low-valued"}
{"compound": "C=Cc1ccc(CC)cc1", "answer_label": "mid-valued"}
{"compound": "CC(C)(C)Br", "answer_label": "high-valued"}
{"compound": "CCCCCO[N+](=O)[O-]", "answer_label": "high-valued"}
{"compound": "N#CCC#N", "answer_label": "mid-valued"}
{"compound": "CCCCCC[C@H](C)I", "answer_label": "high-valued"}
{"compound": "CN(C)C(=O)Nc1ccccc1", "answer_label": "low-valued"}
{"compound": "CC(C)C(C)(C)O", "answer_label": "high-valued"}
{"compound": "Cc1ccc(C#N)cc1", "answer_label": "mid-valued"}
{"compound": "O=C1CCCCCN1", "answer_label": "mid-valued"}
{"compound": "CCCCCCCCCCCCCC", "answer_label": "mid-valued"}
{"compound": "CC(Cl)Br (stereo not given)", "answer_label": "high-valued"}
{"compound": "COC(=O)C(=O)OC", "answer_label": "mid-valued"}
{"compound": "c1ccc(N=Nc2ccccc2)cc1", "answer_label": "low-valued"}
